Where these numbers come from: patent US6376506B1

Recorded melting point for the following molecules

molecule: CC(C)(C)[C@@H](NS(=O)(=O)N1CCN(c2ccc(Cl)cc2)CC1)C(=S)NO
readout label: melting point
observed: 158.5 to 159.6 °C
//
molecule: O=C(NO)C1CCCCN1S(=O)(=O)N1CCC(c2noc3cc(F)ccc23)CC1 (racemic)
readout label: melting point
observed: 145.8 to 146.9 °C
//
molecule: CN(C)C(=O)N1CCN(S(=O)(=O)N2CCC(c3c[nH]c4c(F)c(F)c(F)c(F)c34)CC2)[C@@H](C(=O)NO)C1
readout label: melting point
observed: 181 to 184 °C

Entry C[C@@H](NS(=O)(=O)N1CCC(C(=O)c2ccc(Oc3ccccc3)cc2)CC1)C(=O)NO ; melting point = 202 to 205 °C

Entry CC(C)[C@@H](NS(=O)(=O)N1CCC(Oc2ccc(Cl)cn2)CC1)C(=O)NO ; melting point = 97 to 98.4 °C

Entry O=C(NO)[C@@H](Cc1ccc(O)cc1)NS(=O)(=O)N1CCN(c2ccc(Cl)cn2)CC1 ; melting point = 142 °C

Entry CC(C)[C@@H](NS(=O)(=O)N1CCC(c2ncc(-c3ccccc3)s2)CC1)C(=O)NO ; melting point = 120 to 122.1 °C
